System: kochia (Kochia scoparia)
Test: Test C postemergence
Type: in vivo
Conditions: Rate 250 g/ha, scale 0 to 100 (0 no effect, 100 complete control)
OBSERVATION TYPE: Plant response rating, Kochia
Keep it simple and answer with nothing but the number.

These recorded examples may help you get a feel for the data.
* CCC(CC)c1ccn(C2CCN(c3ccc(C)c(OC)c3)C2=O)n1 (centres unmarked) [Compound 81] | 70
* CCC(CC)c1ccn(C2CCN(c3ccc(Br)c(OC)c3)C2=O)n1 (centres unmarked) [Compound 143] | 90
* CC(C)(C)c1ccn(C2SCN(c3cccc(OC(F)(F)F)c3)C2=O)n1 (centres unmarked) [Compound 30] | 70
* CC(C)(C)c1ccn(C2SCN(c3cccc(OC(F)F)c3)C2=O)n1 (centres unmarked) [Compound 36] | 80

Tell me its Plant response rating, Kochia on kochia (Kochia scoparia): O=C1C(n2ccc(C3CCC3)n2)SCN1c1cccc(OC(F)(F)F)c1 (centres unmarked) [Compound 38]
70
